Subject Of Test: Hpk1 (Homo sapiens)
Construct: expressed in transfected cells; host or cells: HEK293 cells engineered to express Hpk1 and SLP76
Sequence (Q92918 whole entry): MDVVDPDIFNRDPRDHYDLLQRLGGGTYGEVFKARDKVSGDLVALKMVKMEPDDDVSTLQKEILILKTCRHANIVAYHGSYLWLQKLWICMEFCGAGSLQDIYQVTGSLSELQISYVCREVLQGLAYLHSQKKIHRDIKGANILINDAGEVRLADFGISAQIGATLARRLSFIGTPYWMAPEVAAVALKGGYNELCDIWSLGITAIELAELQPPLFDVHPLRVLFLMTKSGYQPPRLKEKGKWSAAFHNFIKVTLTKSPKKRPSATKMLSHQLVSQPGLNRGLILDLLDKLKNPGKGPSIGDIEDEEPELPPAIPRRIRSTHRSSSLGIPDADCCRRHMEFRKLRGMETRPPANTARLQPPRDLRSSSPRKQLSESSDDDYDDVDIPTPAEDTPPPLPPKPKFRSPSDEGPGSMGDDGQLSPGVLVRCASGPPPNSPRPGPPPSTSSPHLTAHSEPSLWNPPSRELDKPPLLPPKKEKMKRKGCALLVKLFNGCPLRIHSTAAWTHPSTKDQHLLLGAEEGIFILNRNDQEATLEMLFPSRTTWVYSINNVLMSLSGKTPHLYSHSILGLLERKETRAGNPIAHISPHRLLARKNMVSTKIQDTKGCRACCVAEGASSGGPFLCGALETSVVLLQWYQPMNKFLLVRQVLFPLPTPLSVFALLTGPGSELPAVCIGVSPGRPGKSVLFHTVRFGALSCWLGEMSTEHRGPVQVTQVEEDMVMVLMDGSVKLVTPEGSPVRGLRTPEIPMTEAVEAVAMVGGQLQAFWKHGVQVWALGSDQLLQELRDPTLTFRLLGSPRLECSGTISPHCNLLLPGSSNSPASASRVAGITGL
Test Summary: SLP76 phosphorylation assay (HEK293 cells expressing Hpk1 and SLP76)
Format: cell-based
Test Settings: SLP76 phosphorylation at S376, HEK293 cells expressing Hpk1 and SLP76, 4 hours incubation; read-out: pSLP76 (HEK293) (pIC50) (converted)
Listing: log10 of IC50 of selected compounds
Assay Endpoint: log10 of IC50 (log10 of the value in nM)

Cc1c[nH]c2ncc(-c3ccc(C4CCOCC4)c([C@@H]4COCCN4)c3)cc12 [Co. 8] :: 2.05
CN(C)Cc1cc(-c2cnc3[nH]cc(C(=O)NCCNC(=O)C(F)F)c3c2)ccc1C1CCOCC1 [Co. 29] :: 3.19
CN(C)Cc1cc(-c2cnc3[nH]cc(C(=O)NCC4(O)CCCC4)c3c2)ccc1C1CCOCC1 [Co. 23] :: 3.20
CN(C)Cc1cc(-c2cnc3[nH]cc(C(=O)NCC4(CO)CCCC4)c3c2)ccc1C1CCOCC1 [Co. 17] :: 2.40
CN(C)Cc1cc(-c2cnc3[nH]cc(C(=O)NCc4nccn4C)c3c2)ccc1C1CCOCC1 [Co. 20a] :: 3.84
N#Cc1c[nH]c2ncc(-c3ccc(C4CCOCC4)c(C4CCCN4)c3)cc12 (centres unmarked) [Co. 3] :: 2.41
CC(C)C(CO)CNC(c1c[nH]c2ncc(-c3ccc(C4CCOCC4)c(CN(C)C)c3)cc12)C(F)(F)F (centres unmarked) [Co. 36] :: 3.42
COCC(C)(O)CNC(=O)c1c[nH]c2ncc(-c3ccc(C4CCOCC4)c(CN(C)C)c3)cc12 (centres unmarked) [Co. 30] :: 3.33
CC(C)C(O)CNC(=O)c1c[nH]c2ncc(-c3ccc(C4CCOCC4)c(CN(C)C)c3)cc12 (centres unmarked) [Co. 11] :: 3.55
CN(C)Cc1cc(-c2cnc3[nH]cc(C(=O)NCC(C)(C)O)c3c2)ccc1C1CCOCC1 [Co. 12] :: 2.76
Cc1nnc(CNC(=O)c2c[nH]c3ncc(-c4ccc(C5CCOCC5)c(CN(C)C)c4)cc23)o1 [Co. 21] :: 3.98
CN(C)Cc1cc(-c2cnc3[nH]cc(C(=O)NCc4nccs4)c3c2)ccc1C1CCOCC1 [Co. 24] :: 3.19
Cc1cc2cc(-c3ccc(C4CCOCC4)c(C4CCCN4)c3)cnc2[nH]1 (centres unmarked) [Co. 2] :: 3.83
Cc1nc(CNC(=O)c2c[nH]c3ncc(-c4ccc(C5CCOCC5)c(CN(C)C)c4)cc23)no1 [Co. 22] :: 3.81
CN(C)Cc1cc(-c2cnc3[nH]cc(C(NCc4ncco4)C(F)(F)F)c3c2)ccc1C1CCOCC1 (centres unmarked) [Co. 37] :: 3.22
